Molecular target: T1, GST-ZO-3 PDZ domain 3 (Homo sapiens (Human)), O95049
T1 chain: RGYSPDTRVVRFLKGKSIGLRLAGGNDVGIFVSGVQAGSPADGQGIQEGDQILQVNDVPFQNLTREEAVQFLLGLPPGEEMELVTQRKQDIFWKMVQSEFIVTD
Assay: G' assay; also: key of the grades not given here

[
  {
    "Binder": "KTMPAAMYRLLTAQEQPVYI (modifications not checked) [MINT-1]",
    "Classification [A450 class]": 1
  },
  {
    "Binder": "PYSELNYETSHYPASPDSWV (modifications not checked) [catenin - delta 2]",
    "Classification [A450 class]": 3
  },
  {
    "Binder": "ELLQFCRTPNPALKNGQYWV (modifications not checked) [CSPG4 (chondroitin sulfae proteoglycan 4, melanoma-associated)]",
    "Classification [A450 class]": 5
  },
  {
    "Binder": "KTMPAAMFRLLTGQETPLYI (modifications not checked) [MINT-2]",
    "Classification [A450 class]": 1
  },
  {
    "Binder": "AGAVRTPLSQVNKVWDQSSV (modifications not checked) [CITRON protein]",
    "Classification [A450 class]": 1
  },
  {
    "Binder": "ILNSIQVMRAQMNQIQSVEV (modifications not checked) [ephrin B2]",
    "Classification [A450 class]": 1
  }
]
